- systemName: T1, DLG3_1, Q92796
- T1 sequence (Q92796 125-227, limits assumed, looked up): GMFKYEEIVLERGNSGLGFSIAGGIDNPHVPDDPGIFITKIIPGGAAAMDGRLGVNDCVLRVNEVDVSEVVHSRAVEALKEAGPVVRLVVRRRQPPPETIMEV
- experimentDescription: holdup assay
- Design: key: below the threshold = too weak to quantify, mostly under pKd 3.1 to 4
- assayConditions: plain residues with an end cap or a label only (N-terminal biotin on a linker: ttds)
Parameter pKd: see the listing below.

>  <binder>
LCALPKVTTV [AGMAT, Q9BSE5]

>  <pKd>
4.27

$$$$
>  <binder>
DPRNTQTSQI [ABRAXAS2, Q15018]

>  <pKd>
3.56

$$$$
>  <binder>
SEKHFRETEV [HTLV1-TAX1, P03409]

>  <pKd>
4.58

$$$$
